B1: LRRC45 (parent)
chain: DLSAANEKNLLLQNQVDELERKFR

Variants of: B1
run-description: protein stability index of a GFP-peptide fusion (GPS, HEK-293T) (PSI 1-6); higher = more stable;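 note: lentivirally expressed fusions sorted by FACS into six bins by GFP to DsRed ratio, PSI derived from sequencing read proportions per bin multiplied by bin number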
stated-conditions: c terminus: a fixed tail appended
Binary call on protein stability index: Criterion met from 4 upward, Criterion not met beneath that.

    mutant_designation           category
 0                 N6D      Criterion met
 1                 N6G      Criterion met
 2                 S3G      Criterion met
 3                 A4E      Criterion met
 4                 A4I  Criterion not met
 5                E20P  Criterion not met
 6                L11G      Criterion met
 7                R21P      Criterion met
 8                E18Y  Criterion not met
 9                Q15I  Criterion not met
10                L11C      Criterion met
11                 L2C      Criterion met
12                R24F  Criterion not met
13                L12M  Criterion not met
14                 N6A      Criterion met
15                Q15W  Criterion not met
16                 D1T  Criterion not met
17                F23A      Criterion met
18                V16G  Criterion not met
19                 E7W  Criterion not met
20                 A4G  Criterion not met
21                R21L  Criterion not met
22                R21I  Criterion not met
23                E20R  Criterion not met
24                 S3C  Criterion not met
25                 E7K  Criterion not met
26                D17P  Criterion not met
27                 N9A      Criterion met
28                 N6Y  Criterion not met
29                N14F  Criterion not met
30                K22R  Criterion not met
31                 K8G      Criterion met
32                E18A  Criterion not met
33                Q13D      Criterion met
34                Q15S      Criterion met
35                L12W  Criterion not met
36                 L2F      Criterion met
37                D17A  Criterion not met
38                F23S      Criterion met
39                 A4N  Criterion not met
